# Test system: A549 NSCLC
# assay.procedure: NCI tumour cell line growth inhibition, 48 h
Measured TGI by item

{"columns": ["compound.structure", "tested.system", "TGI"],
 "data": [
  ["Cc1c(C(N)=O)sc2nc(C)n(/N=c3\\scc(-c4ccccc4)n3Cc3ccccc3)c(=O)c12", "A549 NSCLC", "> 100 µM"],
  ["N#Cc1c(N)nc(N2CCOCC2)c(C#N)c1-c1c(Cl)cccc1Cl", "A549 NSCLC", "95.6 µM"],
  ["N#COc1ccc(Oc2ccc(OC#N)cc2)cc1", "A549 NSCLC", "> 100 µM"],
  ["CN(C)N=Nc1ccc(S(N)(=O)=O)cc1", "A549 NSCLC", "> 100 µM"],
  ["CC(=O)CC(=O)Nc1ccccc1C(F)(F)F", "A549 NSCLC", "> 100 µM"],
  ["COc1cc(O)c(C(=O)/C=C/c2ccc(OC)c(OCc3ccccc3)c2)c(OC)c1", "A549 NSCLC", "> 100 µM"]
]}
